test system: Plasmodium berghei; assay: Luciferase/luciferin-expressing antifolate-resistant parasites were used to infect a culture of HepG2 cells that were pre-incubated with compounds. Infected hepatocytes emit light due to the luciferase reaction. Assay results are presented as the percent inhibition of light emission compared to control. […]; assay type: functional; details: sporozoite, PBLUC_HILL_SLOPE 4.45, PBLUC_R_SQUARED 0.239, read-out: LUCIFERASE INFECTION ASSAY - IC50
outcomeMeasure: pIC50
Scale note: pIC50 = -log10(concentration in M).

// returns reported pIC50 for input `CCN1C(=O)N(CCc2ccccc2)C2(CCN(Cc3ccc(C)cc3)CC2)C1=O`
5.22

---

Property: IC90; scope: individual compounds
tested on: Plasmodium berghei; experiment: Luciferase/luciferin-expressing antifolate-resistant parasites were used to infect a culture of HepG2 cells that were pre-incubated with compounds. Infected hepatocytes emit light due to the luciferase reaction. Assay results are presented as the percent inhibition of light emission compared to control. […]; type: functional; conditions: sporozoite, read-out: LUCIFERASE INFECTION ASSAY - IC90
Express your answer in µM, writing the number without its unit.

1) Cc1nn(-c2ccc(F)cc2)c(Cl)c1/C=C1\C(=O)Nc2ccccc21: 4.68

For the next question, use this compound.
// returns reported IC90 for input O=C(CN1C(=O)CCOc2ccccc21)N1CCN(C(=O)C2COc3ccccc3O2)CC1 (stereo not given)
8.99

---

tested on: Plasmodium berghei; assay: Luciferase/luciferin-expressing antifolate-resistant parasites were used to infect a culture of HepG2 cells that were pre-incubated with compounds. Infected hepatocytes emit light due to the luciferase reaction. Assay results are presented as the percent inhibition of light emission compared to control. […]; type: functional; settings: sporozoite, PBLUC_HILL_SLOPE 23.0, 1.63, PBLUC_R_SQUARED 0.221, 0.716, read-out: LUCIFERASE INFECTION ASSAY - IC50
outcomeMeasure: pIC50
Scale note: pIC50 = -log10(concentration in M).

Missing value: pIC50, Plasmodium berghei, entry `Cc1ccc(Cn2cc(/C=C/C(=O)Nc3ccn(C)n3)c(-c3ccccc3)n2)cc1` . Fill in?
5.27

---

tested on: Plasmodium berghei; assay: Luciferase/luciferin-expressing antifolate-resistant parasites were used to infect a culture of HepG2 cells that were pre-incubated with compounds. Infected hepatocytes emit light due to the luciferase reaction. Assay results are presented as the percent inhibition of light emission compared to control. […]; assay type: functional; settings: sporozoite, PBLUC_HILL_SLOPE 13.8, PBLUC_R_SQUARED 0.568, read-out: LUCIFERASE INFECTION ASSAY - IC50
outcomeMeasure: IC50 (µM)
Express your answer in µM, writing the number without its unit.

// returns reported IC50 for input CC(Nc1ccc2c(c1)Cc1ccccc1-2)C(=O)N1CCCC1 (stereo unspecified)
8.56

---

system: Plasmodium berghei; assay: Luciferase/luciferin-expressing antifolate-resistant parasites were used to infect a culture of HepG2 cells that were pre-incubated with compounds. Infected hepatocytes emit light due to the luciferase reaction. Assay results are presented as the percent inhibition of light emission compared to control. […]; format: functional; conditions: sporozoite, HEPG2TOX_HILL_SLOPE 1.52, HEPG2TOX_R_SQUARED 0.775, PBLUC_HILL_SLOPE 1.87, PBLUC_R_SQUARED 0.699, read-out: LUCIFERASE INFECTION ASSAY - IC50
outcomeMeasure: IC50 (nM)
Express your answer in nM, writing the number without its unit.

// returns reported IC50 for input `O=C(NC1CCN(c2ccc(S(=O)(=O)C(F)(F)F)cc2)CC1)C1CC1`
799

---

system: Plasmodium berghei; assay: Luciferase/luciferin-expressing antifolate-resistant parasites were used to infect a culture of HepG2 cells that were pre-incubated with compounds. Infected hepatocytes emit light due to the luciferase reaction. Assay results are presented as the percent inhibition of light emission compared to control. […]; format: functional; settings: sporozoite, read-out: LUCIFERASE INFECTION ASSAY - IC50
pIC50: −log10 of the molar value.
Property: pIC50; scope: individual compounds

Before answering, review these 6 worked examples.
1) C=CCNc1nnc(SCC(=O)Nc2c(Cl)cc(Cl)cc2C(=O)O)s1: < 5.00
2) O=C(NCC1(c2ccccc2)CCC1)c1ccc(Cn2nnc3ccccc32)cc1: < 5.00
3) N#CC(C(=O)COC(=O)c1cn(-c2ccccc2)nc1-c1ccccc1)=C1Nc2ccccc2N1: < 5.00
4) C#CC(CC)(CC)NC(=O)CSc1nc(C)nc2sc3c(c12)CCC3: < 5.00
5) CC(C(=O)NC(C)(C)C)N1CCN(CC(=O)Nc2ccc(F)cc2)CC1 (stereo not given): < 5.00
6) O=C(NC(=S)NN(C(=S)NC(=O)c1ccccc1Br)c1nc2ccccc2[nH]1)c1ccccc1Br: < 5.00

// returns reported pIC50 for input `CN(C)S(=O)(=O)c1ccc2nnn(OCCCOc3ccc(C(C)(C)C)cc3)c2c1`
< 5.00

Request: `Cc1ccc(-c2nnc(SCC(=O)Nc3ccc(S(=O)(=O)N4CCCC4)cc3)[nH]2)cc1`
< 5.00

Request: CCOC(=O)N1CCN(CC(O)COc2ccc3oc4ccccc4c3c2)CC1 (stereo not given)
< 5.00

Request: `CCOC(=O)c1c(-c2ccc(Cl)cc2)csc1Nc1nc(S(=O)(=O)c2ccc(Cl)cc2)c(Cl)s1`
5.26

---

tested on: Plasmodium berghei; assay: Luciferase/luciferin-expressing antifolate-resistant parasites were used to infect a culture of HepG2 cells that were pre-incubated with compounds. Infected hepatocytes emit light due to the luciferase reaction. Assay results are presented as the percent inhibition of light emission compared to control. […]; format: functional; conditions: sporozoite, HEPG2TOX_HILL_SLOPE 6.22, HEPG2TOX_R_SQUARED 0.342, PBLUC_HILL_SLOPE 2.56, PBLUC_R_SQUARED 0.455, read-out: LUCIFERASE INFECTION ASSAY - IC50
outcomeMeasure: IC50 (µM)
Express your answer in µM, writing the number without its unit.

// returns reported IC50 for input `O=C(Nc1cccc(Cl)c1)Nc1ccccc1N1CCCC1`
6.9

---

system: Plasmodium berghei; assay: Luciferase/luciferin-expressing antifolate-resistant parasites were used to infect a culture of HepG2 cells that were pre-incubated with compounds. Infected hepatocytes emit light due to the luciferase reaction. Assay results are presented as the percent inhibition of light emission compared to control. […]; type: functional; conditions: sporozoite, FFLUC_HILL_SLOPE 6.8, FFLUC_R_SQUARED 0.0322, read-out: LUCIFERASE INFECTION ASSAY - IC50
outcomeMeasure: IC50

// returns reported IC50 for input OC1CCC(Nc2nn3c(-c4cccc(OC(F)(F)F)c4)cnc3s2)CC1 (stereo unspecified)
> 8.28 µM

---

tested on: Plasmodium berghei; assay: Luciferase/luciferin-expressing antifolate-resistant parasites were used to infect a culture of HepG2 cells that were pre-incubated with compounds. Infected hepatocytes emit light due to the luciferase reaction. Assay results are presented as the percent inhibition of light emission compared to control. […]; type: functional; conditions: sporozoite, read-out: LUCIFERASE INFECTION ASSAY - IC50
pIC50: −log10 of the molar value.
outcomeMeasure: pIC50

Before answering, review these 8 worked examples.
1. O=S(=O)(c1ccc2ccccc2c1)N1CCN(c2ncc(C(F)(F)F)cc2Cl)CC1: < 5.14
2. Cc1cc(C(=O)CSC(c2ccccc2)c2ccccc2)c(C)n1C: < 5.00
3. CCOC(=O)/C(=C\c1ccc(Cl)c([N+](=O)[O-])c1)C1=Nn2c(nnc2-c2cccs2)SC1: < 5.00
4. c1ccc2c(Nc3nc(C4CC4)cs3)ncnc2c1: < 5.00
5. CCN(CC)c1ccc(Nc2nc(-c3sc(C)nc3C)cs2)cc1: < 5.04
6. COc1ccc(CCN2CSC(=S)N(CCc3ccc(OC)c(OC)c3)C2)cc1OC: < 5.15
7. CCCn1c(=O)n(C)c(=O)c2c(SCc3cccc([N+](=O)[O-])c3)nc(CC(C)C)nc21: < 5.00
8. O=C1CN(c2ccc(NC(=O)CCc3ccco3)cn2)CCN1: < 5.00

Missing value: pIC50, Plasmodium berghei, entry `O=C(Nc1ccc(-c2nccs2)cc1)c1occc1COc1ccccc1` . Fill in?
< 5.00

Request: `Cc1nn(CC(C)C)c(C)c1CC(=O)NCc1ccccc1Cn1cccn1`
< 5.00

---

tested on: Plasmodium berghei; experiment: Luciferase/luciferin-expressing antifolate-resistant parasites were used to infect a culture of HepG2 cells that were pre-incubated with compounds. Infected hepatocytes emit light due to the luciferase reaction. Assay results are presented as the percent inhibition of light emission compared to control. […]; type: functional; details: sporozoite, PBLUC_HILL_SLOPE 11.6, PBLUC_R_SQUARED 0.0183, read-out: LUCIFERASE INFECTION ASSAY - IC50
pIC50: −log10 of the molar value.
outcomeMeasure: pIC50

// returns reported pIC50 for input `Cc1cc(C)c(NC(=O)CNC(=O)c2ccc(-c3ccccc3)cc2)c(C)c1`
< 5.00
